# Test system: MDA-MB-231
# PROCEDURE_TEXT: NCI tumour cell line growth inhibition, 48 h
The source made the active and inactive calls. No stated cut-off is given here; in the data, active = GI50 up to about 1.1 µM and inactive = higher.
Pick one: active, inactive

Worked set:
>>> group_label("COC(=O)c1cc2ccc(OC(C)=O)c(OC(C)=O)c2cn1")
"inactive"
>>> group_label("Cc1ncc(COP(=O)(O)O)c(C)c1O")
"inactive"
>>> group_label("COc1cc(-c2c[nH]c3ccccc23)nc(-c2c[nH]c3ccccc23)n1")
"inactive"
>>> group_label("O=C(O)c1cccc2cccc(-c3c4ccc(=O)cc-4oc4cc(O)ccc34)c12")
"inactive"
>>> group_label("O=C(OC1OC2COC(=O)c3cc(O)c(O)c(O)c3-c3c(cc(O)c(O)c3O)C(=O)OC3C2OC(=O)[C@@]24CC(=O)[C@@](O)(OC25C(=O)O[C@H]2[C@@H](O)CO[C@@]25O)C2(O)Oc5c(O)c(O)cc(c5C24)C(=O)OC13)c1cc(O)c(O)c(O)c1 (stereo partly specified)")
"active"
>>> group_label("O=C1c2cc([N+](=O)[O-])sc2C(=O)c2ccsc21")
"active"
>>> group_label("COc1ccc(/N=C(/SS/C(=N/c2ccc(OC)cc2)c2ccc([N+](=O)[O-])o2)c2ccc([N+](=O)[O-])o2)cc1")
"inactive"
>>> group_label("CC1OC(OC2C(O)COC(OC3C(C)OC(OC4C(OC(=O)[C@]56CCC(C)(C)C[C@@H]5C5=CCC7[C@@]8(C)C[C@H](O)[C@H](OC9OC(CO)C(O)C(O)C9O)[C@@](C)(CO)[C@@H]8CC[C@@]7(C)[C@]5(C)CC6)OCC(O)C4O)C(O)C3O)C2O)C(O)C(O)C1O (stereo partly specified)")
"inactive"

Enquiry: Per the records of this test, what outcome belongs to Cc1ccc(Nc2cc(=O)[nH]c(=S)[nH]2)cc1 ?
Return: inactive

Enquiry: Per the records of this test, what outcome belongs to CCN1CCc2sc3nc(S)n(C)c(=O)c3c2C1 ?
Return: inactive

Enquiry: Per the records of this test, what outcome belongs to O=C(COc1ccccc1)N(C(=O)N1CCN(c2ccccc2)CC1)S(=O)(=O)c1ccccc1 ?
Return: inactive
